Origin of measurements: patent US10919896B2

Biological target: Cdc7/Dbf4 (Homo sapiens, UniProt O00311)
Assay: Cdc7 Biochemical Assay Method 3: Cdc7/Dbf4 Enzyme TR-FRET Assay measuring pS40MCM2
Details: 1 μM ATP, read-out: Biochemical Method 3 (pIC50) (converted)
Field 'label' (enum: fulfilled / not fulfilled). Set to fulfilled when IC50 is strictly under 4 nM; else not fulfilled.

CC(C)C[C@H]1CN2CCC[C@H]2CN1c1nc(-c2ccnc(F)c2)[nH]c(=O)c1Cl ... not fulfilled
O=c1[nH]c(-c2ccnc(F)c2)nc(OC2CCOCC2)c1Cl ... fulfilled
O=c1[nH]c(-c2ccnc(F)c2)nc(N2CCO[C@H]3CCCC[C@@H]32)c1Cl ... not fulfilled
CN(c1nc(-c2ccnc(F)c2)[nH]c(=O)c1Cl)C1CCNCC1(C)C (stereo not drawn) ... not fulfilled
CCNC(=O)C1CCN(c2nc(-c3ccnc(F)c3)[nH]c(=O)c2Cl)CC1 ... not fulfilled
CN(C)C(=O)N1CCN(c2nc(-c3ccnc(F)c3)[nH]c(=O)c2Cl)CC1 ... fulfilled
O=c1[nH]c(-c2ccnc(F)c2)nc(N2C[C@H](O)C[C@H](O)C2)c1Cl ... fulfilled
O=c1[nH]c(-c2ccnc(F)c2)nc(N2CCn3c(nnc3C(F)(F)F)C2)c1Cl ... not fulfilled
CC1COCCCN1c1nc(-c2ccnc(F)c2)[nH]c(=O)c1Cl (stereo not drawn) ... fulfilled
O=c1[nH]c(-c2ccnc(F)c2)nc(N2CCC3CNCCC32)c1Cl (stereo not drawn) ... fulfilled

In the following, a different molecule is considered.
Enquiry: Lab note: IC50 threshold 4 nM. Does this molecule come in strictly under it? N#C[C@H]1CNCCN1c1nc(-c2ccnc(F)c2)[nH]c(=O)c1Cl
Return: fulfilled

---

Listing: IC50 of selected compounds
Biological target: Cdc7/Dbf4 (Homo sapiens, UniProt O00311)
Assay: Cdc7 Biochemical Assay Method 3: Cdc7/Dbf4 Enzyme TR-FRET Assay measuring pS40MCM2
Settings: 1 μM ATP, read-out: Biochemical Method 3 (pIC50) (converted)
Provide the reading as a plain figure in nM.

Some solved entries appear below for comparison.
CC1(C)CNCCN1c1nc(-c2ccnc(F)c2)[nH]c(=O)c1Cl ... 1.15
CC1(C)CN(c2nc(-c3ccnc(F)c3)[nH]c(=O)c2Cl)CCN1 ... 3.24
CC(=O)N[C@H]1CCN(c2nc(-c3ccnc(F)c3)[nH]c(=O)c2Cl)C1 ... 5.01

# ---- query compound ----
Enquiry: Note down IC50 recorded for O=c1[nH]c(-c2ccnc(F)c2)nc(N2CC[C@@H]3CNC[C@@H]32)c1Cl
Return: 0.813

---

Measured IC50, listed per entry for reference.
Target: Cdc7/Dbf4 (Homo sapiens, UniProt O00311)
Assay: Cdc7 Biochemical Assay Method 3: Cdc7/Dbf4 Enzyme TR-FRET Assay measuring pS40MCM2
Settings: 1 μM ATP, read-out: Biochemical Method 3 (pIC50) (converted)
# include the unit after the value

Use the examples below as a reference point.
O=c1[nH]c(-c2ccnc(F)c2)nc(N2CCn3cnnc3C2)c1Cl ... 0.525 nM
CC1(C)CNCCC1Nc1nc(-c2ccnc(F)c2)[nH]c(=O)c1Cl (centres unmarked) ... 17.4 nM
O=c1[nH]c(-c2ccnc(F)c2)nc(N2CC3CNCC3C2)c1Cl (centres unmarked) ... 3.02 nM
O=C(NCCO)C1CCN(c2nc(-c3ccnc(F)c3)[nH]c(=O)c2Cl)CC1 ... 2 nM

Enquiry: Give the reported IC50 for this molecule. CN[C@H]1CCCN(c2nc(-c3ccnc(F)c3)[nH]c(=O)c2Cl)C1
Return: 2.4 nM

---

Catalogue of IC50 values
Molecular target: Cdc7/Dbf4 (Homo sapiens, UniProt O00311)
Assay: Cdc7 Biochemical Assay Method 3: Cdc7/Dbf4 Enzyme TR-FRET Assay measuring pS40MCM2
Details: 1 μM ATP, read-out: Biochemical Method 3 (pIC50) (converted)
Entry rule: numbers only, all in nM.

Examples with answers:
O=c1[nH]c(-c2ccnc(F)c2)nc(N2CCCCC2)c1Cl ... 1.07
CC(C)[C@H]1CN(c2nc(-c3ccnc(F)c3)[nH]c(=O)c2Cl)CCN1 ... 1.05

Enquiry: Give IC50 for the following compound: O=c1[nH]c(-c2ccnc(F)c2)nc(N2CCC(N3CCOCC3)CC2)c1Cl
Return: 4.37

Enquiry: State, in one line, measured IC50 of CC1(C)COCCN1c1nc(-c2ccnc(F)c2)[nH]c(=O)c1Cl
Return: 0.479

Enquiry: Please list IC50 recorded for the compound O=c1[nH]c(-c2ccnc(F)c2)nc(N2CCOCC(F)(F)C2)c1Cl
Return: 0.229

---

Target: Cdc7/ASK (Homo sapiens, UniProt O00311)
Sequence (O00311 whole entry): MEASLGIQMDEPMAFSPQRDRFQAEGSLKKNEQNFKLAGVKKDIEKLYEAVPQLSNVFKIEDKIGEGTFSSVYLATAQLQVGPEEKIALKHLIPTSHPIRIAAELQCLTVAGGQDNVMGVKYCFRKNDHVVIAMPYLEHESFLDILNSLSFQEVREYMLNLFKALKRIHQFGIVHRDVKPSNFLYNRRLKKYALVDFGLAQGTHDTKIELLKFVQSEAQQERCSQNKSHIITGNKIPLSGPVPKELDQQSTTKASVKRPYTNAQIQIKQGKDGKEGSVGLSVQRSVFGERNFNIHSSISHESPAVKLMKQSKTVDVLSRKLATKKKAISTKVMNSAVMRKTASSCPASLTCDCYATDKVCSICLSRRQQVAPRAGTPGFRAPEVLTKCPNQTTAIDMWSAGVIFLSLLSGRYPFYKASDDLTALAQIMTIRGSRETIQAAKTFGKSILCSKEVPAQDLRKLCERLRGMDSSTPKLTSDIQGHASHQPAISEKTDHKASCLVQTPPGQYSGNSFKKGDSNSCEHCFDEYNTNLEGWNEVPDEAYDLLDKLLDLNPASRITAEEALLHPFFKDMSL
Sequence (Q9UBU7 whole entry partner): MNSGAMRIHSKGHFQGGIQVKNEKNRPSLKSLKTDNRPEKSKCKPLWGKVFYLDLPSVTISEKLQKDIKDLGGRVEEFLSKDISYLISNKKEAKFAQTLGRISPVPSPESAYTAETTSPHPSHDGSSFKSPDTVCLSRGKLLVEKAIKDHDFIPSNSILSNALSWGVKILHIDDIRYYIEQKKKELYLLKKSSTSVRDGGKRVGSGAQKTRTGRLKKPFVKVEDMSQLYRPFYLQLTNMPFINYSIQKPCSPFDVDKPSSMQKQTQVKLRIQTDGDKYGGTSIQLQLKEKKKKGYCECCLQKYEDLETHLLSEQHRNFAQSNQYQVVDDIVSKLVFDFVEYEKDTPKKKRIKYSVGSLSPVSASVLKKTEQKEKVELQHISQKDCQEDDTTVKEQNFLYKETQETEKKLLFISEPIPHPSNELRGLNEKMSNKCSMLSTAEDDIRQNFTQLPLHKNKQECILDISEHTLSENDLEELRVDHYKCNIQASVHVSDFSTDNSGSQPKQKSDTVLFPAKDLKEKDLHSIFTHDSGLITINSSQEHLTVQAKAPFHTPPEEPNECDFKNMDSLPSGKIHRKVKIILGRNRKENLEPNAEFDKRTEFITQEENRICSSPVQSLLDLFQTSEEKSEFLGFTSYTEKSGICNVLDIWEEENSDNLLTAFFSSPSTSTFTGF
Assay: Cdc7 Biochemical Assay Method 2: 384 well mobility shift assay (EZ Reader II), MCM2 peptide substrate
Set-up: purchased
Settings: 12.5 μM ATP, read-out: Biochemical Method 2 (pIC50) (converted)
# strict inequality: IC50 < 2 nM yields T, everything else yields F

Past entries and their recorded results:
CC(C)(C)[C@H]1CN(c2nc(-c3ccncc3)[nH]c(=O)c2Br)CCN1 ... F
CC1CNCCN1c1nc(-c2ccncc2)[nH]c(=O)c1Cl (stereo not shown) ... T
O=c1[nH]c(-c2ccncc2)nc(N2CCNCC2c2ccccc2)c1Cl (stereo not shown) ... F
O=c1[nH]c(-c2ccnc(F)c2)nc(N2CCN[C@@H](C(F)(F)F)C2)c1Cl ... T
CC(F)(F)[C@H]1CN(c2nc(-c3ccncc3)[nH]c(=O)c2Cl)CCN1 ... F
CC(F)(F)[C@H]1CN(c2nc(-c3ccnc(F)c3)[nH]c(=O)c2Cl)CCN1 ... T

Enquiry: # strict comparison: is reported IC50 < 2 nM? input = CC(C)C[C@H]1CN2CCC[C@H]2CN1c1nc(-c2ccncc2)[nH]c(=O)c1Cl
Return: F

---

Target: Cdc7/Dbf4 (Homo sapiens)
Test: Cdc7 Biochemical Assay Method 3: Cdc7/Dbf4 Enzyme TR-FRET Assay measuring pS40MCM2
Conditions: 1 μM ATP, read-out: Biochemical Method 3 (pIC50) (converted)
PROPERTY LABEL: IC50 (nM)
// return numeric value only (unit: nM, not printed)

NC(=O)[C@@H]1CCCN1c1nc(-c2ccnc(F)c2)[nH]c(=O)c1Cl ... 42.7
N[C@H]1CC[C@@H](Oc2nc(-c3ccnc(F)c3)[nH]c(=O)c2Cl)C1 ... 1.32
C[C@H]1CNCCN1c1nc(-c2ccnc(F)c2)[nH]c(=O)c1Cl ... 0.49
O=c1[nH]c(-c2ccnc(F)c2)nc(N2C3CCC2COC3)c1Cl ... 0.813

Enquiry: Quote IC50 reported for O=C1NC(=O)C2(CCN(c3nc(-c4ccnc(F)c4)[nH]c(=O)c3Cl)CC2)N1 please.
Return: 2.19

Enquiry: Fill in reported IC50 for this entry: O=c1[nH]c(-c2ccnc(F)c2)nc(N2CCC3(CCNC3)C2)c1Cl (stereo not drawn)
Return: 8.13

Enquiry: Read off the recorded IC50 for C[C@@H]1CCCCN1c1nc(-c2ccnc(F)c2)[nH]c(=O)c1Cl
Return: 1.05

---

Biological target: Cdc7/ASK (Homo sapiens)
Assay: Cdc7 Biochemical Assay Method 1: 384 well ELISA, whole protein substrate MCM2, antibody against Phospho MCM2 (S53)
Set-up: purchased
Details: 2 μM ATP, read-out: Biochemical Method 1 (pIC50) (converted)
Each record here notes measured IC50.
Reply numerically in nM, unit not repeated.

Below, 8 compounds whose answers are already recorded.
CCCC(NC(=O)OC(C)(C)C)C(=O)N1CCC(c2nc(-c3ccncc3)[nH]c(=O)c2Cl)CC1 (stereo not drawn) ... 245
CC1(c2nc(-c3ccncc3)[nH]c(=O)c2Cl)CCOCC1 ... 3.39
O=c1[nH]c(-c2ccncc2)nc(C2CCOCC2)c1I ... 331
O=c1[nH]c(-c2ccncc2)nc(N2CCC3(COC3)C2)c1Cl ... 53.7
O=c1[nH]c(-c2ccncc2)nc(N2CCN3CC(F)(F)C[C@H]3C2)c1Cl ... 13.2
CC(C)[C@H]1CN(c2nc(-c3ccncc3)[nH]c(=O)c2F)CCN1 ... 0.794
N#CCN1CCN(c2nc(-c3ccncc3)[nH]c(=O)c2Cl)CC1 ... 33.9
O=C(N1CCCN(c2nc(-c3ccncc3)[nH]c(=O)c2Cl)CC1)C(F)(F)F ... 9.33

Here's the next entry for you.
Enquiry: In one line, give reported IC50 of the entry CS(=O)(=O)N1CCN(c2nc(-c3ccncc3)[nH]c(=O)c2Cl)CC1 .
Return: 3.16

---

Test system: Cdc7 (pS53MCM2 levels in HCT116 cells)
Assay: Cdc7 Cell Pharmacodynamics Assay Method 1: pS53MCM2 levels in HCT116 cells, 6 hours
Format: cell-based
Conditions: Homo sapiens, HCT-116, 6 h, read-out: Biomarker Method 1 (pEC50) (converted)
Hi! Just check whether EC50 is below 200 nM. Below gives class 1, equal or above gives class 0.

See these solved cases before continuing.
CC[C@H]1CNCCN1c1nc(-c2ccncc2)[nH]c(=O)c1Cl ... class 0
O=c1[nH]c(-c2ccnc(F)c2)nc(N2CCNCC2)c1Cl ... class 1

Enquiry: Hello, I'm reviewing records and need to know if EC50 of O=c1[nH]c(-c2ccncc2)nc(N2CCNC(c3cccs3)C2)c1Cl (stereo not drawn) is below 200 nM. Could you check?
Return: class 0

Enquiry: Does the reported EC50 of CC(C)(C)[C@H]1CN(c2nc(-c3ccncc3)[nH]c(=O)c2Cl)CCN1 stay below 200 nM?
Return: class 1

Enquiry: Below 200 nM on EC50? Entry CCCN1CCCN(c2nc(-c3ccncc3)[nH]c(=O)c2Cl)CC1
Return: class 0

Enquiry: Given the entry O=c1[nH]c(-c2ccncc2)nc(N2CCC(CO)CC2)c1Cl , would its reported EC50 be below 200 nM?
Return: class 1
